- MEASURED_TARGET: rat EP1 receptor (Rattus norvegicus, UniProt P70597)
- Sequence (P70597 1-405): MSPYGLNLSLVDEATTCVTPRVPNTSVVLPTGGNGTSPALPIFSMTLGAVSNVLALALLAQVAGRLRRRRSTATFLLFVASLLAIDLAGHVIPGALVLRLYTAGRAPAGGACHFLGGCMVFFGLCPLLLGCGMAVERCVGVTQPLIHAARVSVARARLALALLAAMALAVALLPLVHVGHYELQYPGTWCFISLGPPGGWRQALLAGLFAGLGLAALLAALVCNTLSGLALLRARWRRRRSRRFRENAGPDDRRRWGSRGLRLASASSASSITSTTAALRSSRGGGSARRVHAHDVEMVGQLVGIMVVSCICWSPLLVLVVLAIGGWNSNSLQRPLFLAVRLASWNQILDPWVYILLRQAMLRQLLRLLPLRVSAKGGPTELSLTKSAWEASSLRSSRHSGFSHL
- TEST_SUMMARY: Selectivity test: antagonistic action on rat EP1 receptor (intracellular Ca2+, HEK-293 cells)
- STATED_CONDITIONS: PGE2 100 nmol/L, HEK-293 cells stably expressing rat EP1; read-out: Concentration up to which no inhibitory action of 50% or more on the increase in intracellular Ca2+ concentration due to PGE2 through the rat EP1 receptor
pIC50: −log10 of the molar value.
ASSAY_READOUT: pIC50

Task: Need pIC50, item Cc1nn(Cc2cc3ccccc3cn2)c(C(=O)N[C@@H](C)c2ccc(C(=O)O)cc2)c1Br
Output: < 5.00
